Tested on: SF-539 CNS
Assay: NCI-60 one-dose screen, 48 h
Details: 10 µM unless noted
Compounds without any hit were thinned out: in the full panel of roughly 83,000, 20% have a hit. The source made the active and inactive calls. Rule for the calls: active = growth percent below 10; inactive = the rest.
Permitted responses: YES (active), NO (inactive)

CC[C@@H]1NC(=O)[C@@H]2CCCCN2C(=O)[C@@H]2CCCN2C(=O)[C@@H](NC(=O)[C@H](Cc2cc(F)cc(F)c2)NC(=O)Nc2ccc(C3CC3)cc2F)[C@H](C)OC(=O)[C@@H]2C[C@@H](C)CN2C1=O = NO

Name the outcome recorded for O=C1CC(c2ccc3c(c2)OCO3)Nc2ccccc21 (stereo not drawn) in the assay. YES

Name the outcome recorded for CC1(C)CC[C@]2(C(=O)O)CC[C@]3(C)C(=CC[C@@H]4[C@@]5(C)C/C(=C/c6ccco6)C(=O)C(C)(C)[C@@H]5CC[C@]43C)[C@@H]2C1 in the assay. YES
